Reported drug sensitivity score is given for each of the following molecules.
test system: Ba/F3 P210-BCR-ABL1 RUNX1-/mut (mouse); experiment: drug sensitivity score (DSS) (DSS score); higher = more sensitive (stronger growth inhibition); extreme values may be limits of the assay
Note: the reply should be a number with no unit written.

CC(C)C[C@@H](C(=O)N[C@H](C(=O)OC1CCCC1)c1ccccc1)[C@H](O)C(=O)NO: 11.3
Cn1cc(C2=C(c3cn(C4CCN(Cc5ccccn5)CC4)c4ccccc34)C(=O)NC2=O)c2ccccc21: 0.45
CCc1c(C(=O)C(N)=O)c2c(OCC(=O)O)cccc2n1Cc1ccccc1: 0.65
COc1cccc2c1C(=O)c1c(O)c3c(c(O)c1C2=O)C[C@@](O)(C(=O)CO)C[C@@H]3O[C@H]1C[C@H](N)[C@@H](O)[C@H](C)O1 [Epirubicin]: 18.6
CC/C(=C(\c1ccccc1)c1ccc(OCCN(C)C)cc1)c1ccccc1: 7.5

Query: # get_value(readout='drug sensitivity score', item= CO[C@H]1C[C@@H]2CC[C@@H](C)[C@@](O)(O2)C(=O)C(=O)N2CCCC[C@H]2C(=O)O[C@H]([C@H](C)C[C@@H]2CC[C@@H](OCCO)[C@H](OC)C2)CC(=O)[C@H](C)/C=C(\C)[C@@H](O)[C@@H](OC)C(=O)[C@H](C)C[C@H](C)/C=C/C=C/C=C/1C )
Response: 13

Query: Look up drug sensitivity score for this molecule: CC1(C)NC(=O)N(c2ccc([N+](=O)[O-])c(C(F)(F)F)c2)C1=O [Nilutamide]
Response: 0

Query: Fill in: drug sensitivity score of Cc1cn(-c2cc(NC(=O)c3ccc(C)c(Nc4nccc(-c5cccnc5)n4)c3)cc(C(F)(F)F)c2)cn1 is ___
Response: 25.6

Query: I'd like to know its drug sensitivity score. The molecule in question is COc1cccc2c1C(=O)c1c(O)c3c(c(O)c1C2=O)C[C@@](O)(C(C)=O)C[C@@H]3O[C@H]1C[C@H](N)[C@H](O)[C@H](C)O1
Response: 19.5

Query: Quick check: drug sensitivity score of CCCCCCCCc1ccc(CCC(N)(CO)CO)cc1 ?
Response: 8.35

* * *

system: Ba/F3 P210-BCR-ABL1 RUNX1-/mut (mouse); test: drug sensitivity score (DSS) (DSS score); higher = more sensitive (stronger growth inhibition); extreme values may be limits of the assay
result_type: drug sensitivity score
# output: bare number, no unit

CCOC(=O)C1=CCCC[C@H]1S(=O)(=O)Nc1ccc(F)cc1Cl: 0
CCS(=O)(=O)c1cccc(-c2cc(C(=O)NC3CCN(C)CC3)c(C)c3[nH]c4ncc(C)cc4c23)c1: 3.55
CCN1C(=O)CNc2ncc(-c3ccc(-c4nc[nH]n4)nc3C)nc21: 12.8
COCC[n+]1c2c(n(Cc3cnccn3)c1C)C(=O)c1ccccc1C2=O [Sepantronium bromide]: 17.1
O=c1[nH]cc(F)c(=O)[nH]1: 10.3
CCN1CCN(c2ccc(Nc3cc(N(C)C(=O)Nc4c(Cl)c(OC)cc(OC)c4Cl)ncn3)cc2)CC1: 0
Cn1c(=O)n(-c2ccc(C(C)(C)C#N)cc2)c2c3cc(-c4cnc5ccccc5c4)ccc3ncc21: 18.3
CCCOc1ccn2c(C(C)=O)cc(-c3ccccc3S(C)(=O)=O)c2c1: 2.3

Query: Given the compound CCC1(c2ccc(N)cc2)CCC(=O)NC1=O (stereo not given) [Aminoglutethimide] , what is its reported drug sensitivity score?
Response: 0

Query: drug sensitivity score lookup needed for CN(c1ncccc1CNc1nc(Nc2ccc3c(c2)CC(=O)N3)ncc1C(F)(F)F)S(C)(=O)=O , thanks.
Response: 7.25

Query: # lookup: drug sensitivity score of Nc1cc(F)ccc1NC(=O)/C=C/c1cnn(C/C=C/c2ccccc2)c1
Response: 4.25

Query: Item under review: CCC/C=C/C=C/C(=O)O[C@H]1/C(=C/C(=O)OC)C[C@H]2C[C@H]([C@@H](C)O)OC(=O)C[C@H](O)C[C@@H]3C[C@H](OC(C)=O)C(C)(C)[C@](O)(C[C@@H]4C/C(=C/C(=O)OC)C[C@H](/C=C/C(C)(C)[C@]1(O)O2)O4)O3 . Reported drug sensitivity score?
Response: 8.55

Query: Requested read-out: drug sensitivity score. Entry: CC(C)c1cc(C(=O)N2Cc3ccc(CN4CCN(C)CC4)cc3C2)c(O)cc1O
Response: 17.8

Query: Any idea what drug sensitivity score was measured for CC[C@]1(O)C[C@@H]2CN(CCc3c([nH]c4ccccc34)[C@@](C(=O)OC)(c3cc4c(cc3OC)N(C)[C@H]3[C@@](O)(C(=O)OC)[C@H](OC(C)=O)[C@]5(CC)C=CCN6CC[C@]43[C@@H]65)C2)C1 ?
Response: 22.3

Query: Quick check: drug sensitivity score of C[C@]12CC[C@H](O)CC1=CC[C@@H]1[C@@H]2CC[C@]2(C)C(c3cccnc3)=CC[C@@H]12 ?
Response: 0

Values were extracted from the supplement of paper PMC8024199.
